# Tested on: ICK
# experimental parameters: concentration: 1 μM, replicates: in singlicate; n = 1;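 also: KINOMEscan kinase panel screen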
Reported %Inh values for the following molecules.
assay metric: %Inh (%)

                                   molecule  test_value
0  O=C(Nc1n[nH]c2cc(-c3cccc(F)c3F)ccc12)C1CC1 [SB-733894]          22
1   O=C(Nc1ccccc1)Nc1cccc(Oc2ccc3nccn3n2)c1           0
2  CC(C)(C)c1ccc(C(=O)Nc2cn3cc(Cl)ccc3n2)cc1           0
3     Nc1ncnc2[nH]c(-c3ccccc3)nc12 [AH5015]           0
4  CC(C)(C)c1ccc(C(=O)Nc2cn3cc(-c4cccnc4)ccc3n2)cc1           0

* * *

# System: EPHA4
# experimental parameters: concentration: 1 μM, replicates: in singlicate; n = 1
Reported %Inh values for the following compounds.
assay metric: %Inh

>>> df
                                   compound  assay_system  test_value
0  Cn1ccc2ncnc(Oc3ccc(NC(=O)Nc4ccccc4)cc3)c21         EPHA4          0%
1  COc1ccc2nc(-c3cccc(C)n3)nc(Nc3ccncc3)c2c1 [GSK204919]         EPHA4         23%
2  COc1cccc(NC(=O)NC2CCN(c3ccnc(Nc4ccc(F)cc4)n3)C2)c1 (centres unmarked) [GSK1379721]         EPHA4          0%
3  CC1=C(C(=O)Nc2cc3cn[nH]c3cc2F)C(c2ccc(C(F)(F)F)cc2)CC(=O)N1 (centres unmarked) [GSK429286]         EPHA4          4%
4  CC(=O)Nc1nc2cnc(Nc3cc(NC(=O)c4cccc(CCC#N)c4)ccc3C)nc2s1         EPHA4         16%

* * *

# Test system: MUSK
# experimental parameters: concentration: 1 μM, replicates: in singlicate; n = 1
assay metric: %Inh (%)

>>> print(df.to_string())
                                    compound  uom  test_value
 0  Cc1ccc(C(=O)Nc2ccc(Nc3ccnc4cc(-c5ccccn5)ccc34)cc2O)cc1.Cl    %          14
 1  CC(=O)Nc1nc2cnc(Nc3cc(NC(=O)c4cccc(CCC#N)c4)ccc3C)nc2s1    %           0
 2                     NC(=O)c1nnc2ccccc2c1N    %          10
 3        Cc1cccc(-c2nc(C)cc(Nc3ccncc3)n2)n1    %           0
 4  Cn1ccc2ncnc(Oc3cccc(C(=O)Nc4ccccc4)c3)c21    %           0
 5  COc1ccccc1-c1ccc2c(NC(=O)C3CC3)n[nH]c2n1    %           0
 6  COc1ccc(Nc2nccc(-c3cccc(NC(=O)c4cc5cc(F)ccc5[nH]4)c3)n2)cc1    %           6
 7  Cc1ccc(NC(=O)Nc2cccc(Cl)c2)cc1-c1ccc(C(=O)Nc2ccncc2)cc1    %           5
 8  CS(=O)(=O)c1ccc(-c2c(-c3ncn[nH]3)sc(N3CCOCC3)c2C#N)cc1    %           2
 9  CC(C)(C)c1ccc(C(=O)Nc2cn3cc(-c4cccnc4)ccc3n2)cc1    %          17
10       Nc1nc(-c2nccs2)c(-c2ccnc3ccccc23)s1    %          15
11  Cc1cc(NCC(c2ccccc2)c2ccccc2)nc(NCc2ccc(C(F)(F)F)cc2)n1    %           0
12  CS(=O)(=O)c1ccc(-c2nc3n(c2-c2ccncc2)CCC3)cc1    %          12
13  CC1=C(C(=O)Nc2cc3cn[nH]c3cc2F)C(c2ccc(C(F)(F)F)cc2)CC(=O)N1 (centres unmarked)    %           6
14     Cc1cccc(-c2nc(Nc3ccncc3)c3ccccc3n2)n1    %          17
15  COc1cccc(NC(=O)NC2CCN(c3ccnc(Nc4ccc(F)cc4)n3)C2)c1 (centres unmarked)    %           0
16  COc1cc2ncn(-c3cc(OCC4CCCO4)c(C(N)=O)s3)c2cc1OC (centres unmarked)    %           1
